# Measurement Target: T1, TGR26, rat-derived G protein-coupled receptor protein (rat, UniProt Q56UD9 1-329)
# T1 construct: Expressed in CHO dhfr- cells from pAK-rGPR7; also called rat TGR26; TGR26 receptor
# T1 sequence: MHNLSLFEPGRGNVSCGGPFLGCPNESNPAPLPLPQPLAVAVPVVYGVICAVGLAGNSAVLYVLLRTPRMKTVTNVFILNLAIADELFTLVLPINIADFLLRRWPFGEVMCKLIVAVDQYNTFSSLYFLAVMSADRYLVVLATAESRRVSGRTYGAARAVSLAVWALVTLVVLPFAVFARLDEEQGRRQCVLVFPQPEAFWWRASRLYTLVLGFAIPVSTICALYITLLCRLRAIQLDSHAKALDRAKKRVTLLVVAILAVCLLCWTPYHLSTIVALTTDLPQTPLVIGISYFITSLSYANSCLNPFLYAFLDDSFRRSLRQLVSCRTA
# Test Details: competition with [125I-Tyr10]-hGPR8L(1-23), membrane fraction of TGR26 expressing CHO cells
No end group written: not given here. *: point of attachment. Propanoyl(3-indol-3-yl) = O=C(CCc1c[nH]c2ccccc12)*
# Lookup of reported pIC50 keyed by entry
Here pIC50 is given on a logarithmic scale as minus log10 of the concentration in mol/L.

Examples with their reported pIC50 follow.
| Binder | Measured Value |
| --- | --- |
| WYKHVASPRYHTVGRAAG (also called hGPR8L(1-18)) [Human GPR8 ligand (1-18)] | 6.12 |
| {Propanoyl(3-indol-3-yl)}-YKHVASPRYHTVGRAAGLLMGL (also called IndPr-hGPR8L(2-23)) [[N-3-Indolepropanoyl-Tyr^2]-human GPR8 ligand (2-23)] | 9.92 |
| WYKHVASPRYHTVGRAAGLL (also called hGPR8L(1-20)) [Human GPR8 ligand (1-20)] | 9.77 |
| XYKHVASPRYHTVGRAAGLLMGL (N-alpha-acetyl on Trp 1, also called Ac-hGPR8L(1-23)) [[N^α-Acetyl-Trp^1]-Human GPR8 ligand (1-23)] | 9.57 |
| RYHTVGRAAGLLMGL (also called hGPR8L(9-23)) [Human GPR8 ligand (9-23)] | 5.60 |

Request: Bench note: what pIC50 did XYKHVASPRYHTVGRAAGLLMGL (D-Trp at position 1, also called [D-Trp^1]-hGPR8L(1-23)) [[D-Trp^1]-Human GPR8 ligand (1-23)] show?
Response: 8.89
